Quick reference for TGI among some compounds
System: CAKI-1 renal
Assay Text: NCI tumour cell line growth inhibition, 48 h
The figure you give is taken to be in µM; do not add the unit.

Query Smiles | Display Unit | Measured Value
O=c1c2c3c(sc2n2c(-c4ccc(Br)cc4)nnc2n1Cc1ccccc1)CCCC3 | µM | 22.4
COc1ccc2c(c1)CC[C@@H]1[C@@H]2CC[C@]2(C)C=C(/C=C/C(=O)c3ccccc3)C[C@@H]12 | µM | 38.3
O=C(Nc1ccc(I)cc1F)c1cc(I)ccc1O | µM | 4.11

Turning to the following compound.
Query (compound): "CCN(CC)CCC(=O)c1ccc(Oc2ccc(F)cc2)cc1" ; field requested: TGI
30.9
